- System: PC-3
- assayProtocol: Antimigratory activity against human PC3 cells assessed as inhibition of cell migration after 24 hrs by wound healing assay
- Type: functional, cell-based
- statedConditions: PC-3, 24 h, read-out: IC50
Reported pIC50 values for a set of molecules
Reminder that pIC50 is minus the log10 of a molar concentration.

Answered cases to consult:
| molecule | experimentalSystem | testValue |
| --- | --- | --- |
| C=C1CC[C@H](C(C)C)[C@@H]2[C@H]1[C@H]1CC(=C)[C@@H](OC(=O)Nc3ccccc3)CC[C@@](C)(O)[C@@H]2O1 | PC-3 | 4.24 |
| C=C1CC[C@H](C(C)C)[C@@H]2[C@H]1[C@H]1C[C@](C)(O)[C@@H](O)CC[C@@](C)(OC(C)=O)[C@@H]2O1 [SCLEROPHYTIN B] | PC-3 | 3.80 |

# evaluate next
Form field: reported pIC50 of C=C1CC[C@H](C(C)C)[C@@H]2[C@H]1[C@H]1CC(=C)[C@]3(O)CC[C@@](C)(O3)[C@@H]2O1 [PACHYCLADIN D]
4.12

----------
- System: PC-3
- assayProtocol: Antimigratory activity against human PC3 cells assessed as inhibition of cell migration after 24 hrs by wound healing assay
- Format: functional, cell-based
- statedConditions: PC-3, 24 h, read-out: IC50
Reported pIC50 values for a set of compounds
Reminder that pIC50 is minus the log10 of a molar concentration.

| compound | pIC50 |
| --- | --- |
| C=C1C[C@H]2O[C@H]([C@@H]3[C@@H](C(C)C)[C@H](O)C[C@@](C)(OC(C)=O)[C@@H]32)[C@](C)(OC(C)=O)CC[C@@H]1O | 3.90 |

Report pIC50 for CC(=O)O[C@]1(C)CC[C@H](C(C)C)[C@@H]2[C@H]1[C@H]1C[C@]3(C)CCC[C@@](C)(O3)[C@@H]2O1 tested on PC-3.
4.28

----------
- Tested on: PC-3
- assayProtocol: Antimigratory activity against human PC3 cells assessed as inhibition of cell migration after 24 hrs by wound healing assay
- Type: functional, cell-based
- statedConditions: PC-3, 24 h, read-out: IC50
measuredEndpoint: pIC50
Reminder that pIC50 is minus the log10 of a molar concentration.

| molecule | experimentalSystem | testValue |
| --- | --- | --- |
| C=CCNC(=O)N(CC=C)C(=O)N(CC=C)C(=O)O[C@H]1CC[C@@](C)(O)[C@@H]2O[C@H](CC1=C)[C@H]1C(=C)CC[C@H](C(C)C)[C@H]12 | PC-3 | 4.01 |
| C=C1CC[C@H](C(C)C)[C@@H]2[C@H]1[C@H]1C[C@](C)(O)[C@@H](O)CC[C@@](C)(O)[C@@H]2O1 | PC-3 | 4.08 |
| C=C1CC[C@H](C(C)C)[C@@H]2[C@H]1[C@H]1C[C@](C)(O)[C@@H](OC)CCC(C)(O)[C@@H]2O1 (single isomer, unassigned) | PC-3 | 4.23 |

Form field: reported pIC50 of C=C1CC[C@H](C(C)C)[C@@H]2[C@H]1[C@H]1C/C(C)=C\CC[C@@](C)(O)[C@@H]2O1
4.08

Form field: reported pIC50 of C=C1CC[C@H](C(C)C)[C@@H]2[C@H]1[C@H]1CC(=C)[C@@H](OC(=O)N(Cc3ccccc3)C(=O)NCc3ccccc3)CC[C@@](C)(O)[C@@H]2O1
4.52

Form field: reported pIC50 of CC(=O)O[C@]1(C)CC[C@H](C(C)C)[C@@H]2[C@H]1[C@H]1C[C@](C)(O)[C@@H](O)CC[C@@](C)(OC(C)=O)[C@@H]2O1
4.80

Form field: reported pIC50 of C=C1CC[C@H](C(C)C)[C@@H]2[C@H]1[C@H]1CC(=C)[C@@H](OC(C)=O)CC[C@@](C)(O)[C@@H]2O1
4.25

Form field: reported pIC50 of C=C1CC[C@H](C(C)C)[C@@H]2[C@H]1[C@H]1C[C@](C)(O)[C@@H](OCC)CC[C@@](C)(O)[C@@H]2O1
4.12

Form field: reported pIC50 of C=C1CC[C@H](C(C)C)[C@@H]2[C@H]1[C@H]1CC(=C)[C@@H](OC(=O)NCCCCC)CC[C@@](C)(O)[C@@H]2O1
4.37

Form field: reported pIC50 of C=C1CC[C@H](C(C)C)[C@@H]2[C@H]1[C@H]1CC(=C)[C@@H](OC(=O)NCCCCl)CC[C@@](C)(O)[C@@H]2O1
4.17
